From: ChEMBL document CHEMBL1123490

- ASSAY SYSTEM: 2-5A-dependent ribonuclease (Mus musculus, UniProt Q05921)
- Sequence (Q05921 whole entry): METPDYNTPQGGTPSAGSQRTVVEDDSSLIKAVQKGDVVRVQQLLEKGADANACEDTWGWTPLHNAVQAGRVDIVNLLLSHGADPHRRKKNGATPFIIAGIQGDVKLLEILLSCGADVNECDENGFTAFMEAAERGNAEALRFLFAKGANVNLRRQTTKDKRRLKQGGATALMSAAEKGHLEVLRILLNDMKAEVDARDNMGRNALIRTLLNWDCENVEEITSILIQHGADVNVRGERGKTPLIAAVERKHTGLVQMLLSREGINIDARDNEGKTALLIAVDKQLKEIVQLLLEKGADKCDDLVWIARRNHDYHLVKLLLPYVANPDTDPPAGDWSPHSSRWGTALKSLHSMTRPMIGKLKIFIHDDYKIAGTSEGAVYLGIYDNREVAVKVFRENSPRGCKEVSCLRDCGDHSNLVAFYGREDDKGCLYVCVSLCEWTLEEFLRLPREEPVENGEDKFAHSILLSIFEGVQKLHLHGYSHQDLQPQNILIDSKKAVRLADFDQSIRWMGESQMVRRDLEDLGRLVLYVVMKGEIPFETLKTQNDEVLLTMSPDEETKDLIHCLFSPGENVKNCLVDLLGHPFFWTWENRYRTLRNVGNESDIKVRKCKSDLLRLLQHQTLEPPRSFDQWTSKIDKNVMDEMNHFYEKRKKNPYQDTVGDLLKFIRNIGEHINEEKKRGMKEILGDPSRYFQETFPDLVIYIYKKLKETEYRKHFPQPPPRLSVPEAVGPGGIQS
- MEASUREMENT DESCRIPTION: Compound was tested for activation of RNase L by measuring concentration required for 50% inhibition of protein synthesis in mouse L cell extracts
- Format: cell-based
pIC50: −log10 of the molar value.
PROPERTY MEASURED: pIC50

Reference set, count: 2
MOLECULAR STRING | ASSAY SYSTEM | PROPERTY MEASURED | RECORDED RESULT
Nc1ncnc2c1nc(Br)n2[C@@H]1O[C@H](COP(=O)(O)O[C@@H]2[C@H](O)[C@@H](COP(=O)(O)O[C@@H]3[C@H](O)[C@@H](COP(=O)(O)OP(=O)(O)OP(=O)(O)O)O[C@H]3n3c(Br)nc4c(N)ncnc43)O[C@H]2n2c(Br)nc3c(N)ncnc32)[C@@H](O)[C@H]1O | 2-5A-dependent ribonuclease (Mus musculus, UniProt Q05921) | pIC50 | 6.82
Nc1ncnc2c1ncn2[C@@H]1O[C@H](CO[P@](=O)(O)O[C@@H]2[C@H](O)[C@@H](CO[P@](=O)(O)O[C@@H]3[C@H](O)[C@@H](CO[P@](=O)(O)O[P@@](=O)(O)OP(=O)(O)O)O[C@H]3n3cnc4c(N)ncnc43)O[C@H]2n2cnc3c(N)ncnc32)[C@@H](O)[C@H]1O | 2-5A-dependent ribonuclease (Mus musculus, UniProt Q05921) | pIC50 | 8.64

(A) Nc1ncnc2c1nc(Br)n2[C@@H]1O[C@H](COP(=O)(O)O[C@@H]2[C@H](O)[C@@H](COP(=O)(O)O[C@@H]3[C@H](O)[C@@H](COP(=O)(O)O)O[C@H]3n3c(Br)nc4c(N)ncnc43)O[C@H]2n2c(Br)nc3c(N)ncnc32)[C@@H](O)[C@H]1O
(B) Nc1ncnc2c1nc(Br)n2[C@@H]1O[C@H](COP(=O)(O)O[C@@H]2[C@H](O)[C@@H](COP(=O)(O)O[C@@H]3[C@H](O)[C@@H](COP(=O)(O)OP(=O)(O)O)O[C@H]3n3c(Br)nc4c(N)ncnc43)O[C@H]2n2c(Br)nc3c(N)ncnc32)[C@@H](O)[C@H]1O
Task: Hi team, can someone confirm which has the larger pIC50: A or B ? Thanks. Your answer should be the label attached to the chosen record.
Output: B
